Test system: NCI-H460
assay.remarks: Cytotoxicity against human NCI-H460 cells after 48 hrs by MTT assay
Format: functional, cell-based
assay.context: NCI-H460, 48 h
observable: IC50 (nM)
Express your answer in nM, writing the number without its unit.

1) CC[C@]1(O)Cc2c(O)c3c(c(O)c2[C@@H](O[C@H]2C[C@H](O)[C@H](O[C@H]4C[C@H](O)[C@H](O[C@H]5CC[C@H](O)[C@H](C)O5)[C@H](C)O4)[C@H](C)O2)C1)C(=O)c1c(O)cccc1C3=O :: 900
2) CC[C@@]1(O)C[C@H](O[C@H]2C[C@H](O)[C@H](O[C@H]3CC[C@H](O[C@H]4CC[C@H](O)[C@H](C)O4)[C@H](C)O3)[C@H](C)O2)c2c(O)c3c(c(O)c2[C@H]1O)C(=O)c1cccc(O)c1C3=O :: 1300

# ---- query compound ----
Reported IC50, compound CC[C@@]1(O)C[C@H](O[C@H]2C[C@H](O)[C@H](O[C@H]3C[C@H](O)[C@H](O[C@H]4CC[C@H](O)[C@H](C)O4)[C@H](C)O3)[C@H](C)O2)c2c(O)c3c(c(O)c2[C@H]1O)C(=O)c1cccc(O)c1C3=O : ____ 700
